System: T. brucei
Experiment: Growth inhibition assay of T. brucei cell cultures (Alamar Blue, 48 h)
Assay type: cell-based
Conditions: Trypanosoma brucei; read-out: B) T. brucei EC50
pEC50: −log10 of the molar value.
Kind request: treat 6 as inclusive, so pEC50 at 6 or higher is rule met, anything lower is rule not met.

Solved entries (count: 5):
| compound | assigned_class |
| --- | --- |
| COC(=O)N(CCCNc1nc2ccc(F)nc2[nH]1)Cc1cc(Cl)cc(Cl)c1 [Compound 1964] | rule met |
| O=C1N[C@@H](Cc2ccc(Cl)cc2Cl)CN1Cc1nc2ccccc2[nH]1 [Compound 1792] | rule not met |
| Fc1ccc2[nH]c(CCCNCc3cc(Cl)cc(Cl)c3)nc2n1 [Compound 1858] | rule not met |
| Clc1cc(Cl)cc(CO[C@H]2CCCN(c3nc4nc(Cl)ccc4[nH]3)C2)c1 [Compound 1898] | rule not met |
| CC(=O)N(CCCc1nc2ccc(Cl)nc2[nH]1)Cc1cc(Cl)cc(Cl)c1 [Compound 1895] | rule met |

Check the entry CCOc1c(Cl)cc(Cl)cc1CNCCN(C)c1nc2nc(Cl)ccc2[nH]1 [Compound 1925] : does pEC50 equal or exceed 6?
rule met

Reported pEC50 at or above 6? CC(=O)N(Cc1cc(Cl)cc(Cl)c1)C1CCCC(c2nc3cc(F)ccc3[nH]2)C1 (stereo not shown) [Compound 1860]
rule not met

Does the reported pEC50 for Clc1cc(Cl)cc(CNC2CCCC(c3nc4nc(Cl)ccc4[nH]3)C2)c1 (stereo not shown) [Compound 1788] fall at or above the 6 mark?
rule met

* * *

Target: MetRS (T. brucei) (Trypanosoma brucei brucei)
Test: MetRS (T. brucei) ATP depletion assay using Kinase-Glo
Type: biochemical
pIC50 values by entry
# reply with the number alone; pIC50 is -log10 of concentration in mol/L

A selection of reference data follows.
| compound | value |
| --- | --- |
| CC(=O)N(Cc1cc(Cl)cc(Cl)c1)C1CCCC(c2nc3nc(Cl)ccc3[nH]2)C1 (centres unmarked) | 7.05 |
| CCNc1c(Cl)cc(Cl)cc1CN[C@H]1CCCN(c2nc3nc(Cl)ccc3[nH]2)C1 | 7.38 |
| O=C(/C=C/Oc1ccc(Cl)cc1Cl)NCc1nc2ccc(F)nc2[nH]1 | 7.74 |
| COC(=O)[C@H](Cc1ccc(Cl)cc1Cl)NC(=O)NCc1nc2ccccc2[nH]1 | 5.86 |
| O=C(Cc1ccc(Cl)cc1Cl)N1CCCC(c2nc3ccccc3[nH]2)C1 (centres unmarked) | 5.30 |

Give reported pIC50 value for `O=C(Cc1cc(Cl)cc(Cl)c1)NCc1nc2cnc(Cl)cc2[nH]1`
6.38

Indicate its recorded pIC50; the compound in question is `Clc1cc(Cl)cc(CN[C@@H]2CCN(c3nc4ccc(Cl)nc4[nH]3)C2)c1`
6.16

Consider the compound Clc1cc(Cl)cc(CNC2CCCC(c3nc4cc(Cl)ccc4[nH]3)C2)c1 (centres unmarked) . State its measured pIC50.
6.24

For `CN(Cc1nc2ccccc2[nH]1)C(=O)CCOc1ccc(Cl)cc1Cl` , write its pIC50.
5.29

For the compound `O=C(Cc1cc(Cl)cc(Cl)c1)N1CCC[C@H](c2nc3cc(Cl)ccc3[nH]2)C1` , report pIC50.
7.51

Fill in reported pIC50 for this entry: Clc1cc(Cl)c2c(c1)C(N[C@H]1CCCN(c3nc4nc(Cl)ccc4[nH]3)C1)CCN2 (some centres unmarked)
7.05

Answer with the recorded pIC50 for the compound listed here: `O=C1N[C@@H](Cc2ccc(Cl)cc2Cl)CN1Cc1nc2ccccc2[nH]1`
6.82

* * *

Target: MetRS (T. brucei) (Trypanosoma brucei brucei)
In this section we review reported pIC50 values for a set of compounds.
Remember, pIC50 is on a log scale: it is -log10 of the molar concentration.

| compound | pIC50 |
| --- | --- |
| CC(=O)N(Cc1cc(Cl)cc(Cl)c1)C1CCCN(c2nc3nc(F)ccc3[nH]2)C1 (stereo not shown) | 5.18 |
| O=c1c(NCc2nc3ccccc3[nH]2)c(NCc2ccc(Cl)cc2Cl)c1=O | 7.96 |
| Clc1cc(Cl)cc(CNCCSc2nc3nc(Cl)ccc3[nH]2)c1 | 5.98 |

We next turn to a different compound, shown below.
// output pIC50; input `Clc1cc(Cl)cc(CN[C@@H]2CCC[C@H](c3nc4nc(Cl)ccc4[nH]3)C2)c1` ; system MetRS (T. brucei) (Trypanosoma brucei brucei)
6.97

* * *

Target: MetRS (T. brucei) (Trypanosoma brucei brucei, UniProt Q38C91)
Sequence (Q38C91 entry or part of it): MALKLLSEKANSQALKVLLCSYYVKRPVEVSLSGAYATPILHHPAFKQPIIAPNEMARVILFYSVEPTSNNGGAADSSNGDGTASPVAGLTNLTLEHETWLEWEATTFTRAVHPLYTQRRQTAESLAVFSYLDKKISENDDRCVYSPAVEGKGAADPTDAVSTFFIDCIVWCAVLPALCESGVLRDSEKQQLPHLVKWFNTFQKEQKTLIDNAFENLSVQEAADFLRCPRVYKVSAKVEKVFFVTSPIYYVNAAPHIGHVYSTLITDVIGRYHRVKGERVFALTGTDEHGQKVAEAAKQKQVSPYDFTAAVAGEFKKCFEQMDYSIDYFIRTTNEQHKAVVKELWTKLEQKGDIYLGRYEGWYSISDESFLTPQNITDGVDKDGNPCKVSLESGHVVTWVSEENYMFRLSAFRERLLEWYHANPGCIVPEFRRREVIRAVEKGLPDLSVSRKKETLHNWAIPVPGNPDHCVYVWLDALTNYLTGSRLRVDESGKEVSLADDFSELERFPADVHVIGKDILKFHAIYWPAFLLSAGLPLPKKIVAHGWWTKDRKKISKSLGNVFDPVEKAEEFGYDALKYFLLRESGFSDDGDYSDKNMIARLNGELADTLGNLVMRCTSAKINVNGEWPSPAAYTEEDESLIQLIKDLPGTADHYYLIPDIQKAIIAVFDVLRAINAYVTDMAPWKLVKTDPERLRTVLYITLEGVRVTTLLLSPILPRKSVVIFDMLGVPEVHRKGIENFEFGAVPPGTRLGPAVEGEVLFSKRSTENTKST
pIC50: −log10 of the molar value.
Returns rule met if the recorded pIC50 is greater than or equal to 7, and rule not met otherwise.

| compound | assigned_class |
| --- | --- |
| Clc1cc(Cl)c(OC2CC2)c(CN[C@H]2CCCN(c3nc4nc(Cl)ccc4[nH]3)C2)c1 | rule not met |
| O=C(Nc1cc(Cl)cc(Cl)c1)N1CCCC(c2nc3cc(Cl)ccc3[nH]2)C1 (centres unmarked) | rule not met |
| O=C(NCCc1ccc(Cl)cc1Cl)OCc1nc2ccccc2[nH]1 | rule not met |
| Clc1cc(Cl)cc(CN[C@@H]2CCCN(c3nc4nc(Cl)ccc4[nH]3)C2)c1 | rule not met |
| CC(Cc1nc2ccc(Br)cc2[nH]1)NCc1cc(Cl)cc(Cl)c1 (centres unmarked) | rule met |
| O=C1CN(Cc2ccccc2Cl)CCN1Cc1nc2ccccc2[nH]1 | rule not met |
| CCN(CCNCc1cc(Cl)cc(Cl)c1)c1nc2nc(Cl)ccc2[nH]1 | rule met |
| O=C(Cc1cc2cc(Cl)cc(Cl)c2o1)NCc1nc2ccccc2[nH]1 | rule not met |

Given Clc1cc(Cl)cc(NCC2CCCN(c3nc4nc(Cl)ccc4[nH]3)C2)c1 (centres unmarked) , state whether its pIC50 is at least 7.
rule met

Has `O=C(NCc1nc2ccccc2[nH]1)C(=O)NCc1ccc(Cl)cc1Cl` a recorded pIC50 greater than or equal to 7?
rule not met

Given NC(CC(=O)NCc1cc(Cl)cc(Cl)c1)c1nc2ccc(Cl)nc2[nH]1 (centres unmarked) , state whether its pIC50 is at least 7.
rule not met

Threshold query (pIC50 >= 7) on `CC(=O)N(CCN(C)c1nc2nc(F)ccc2[nH]1)Cc1cc(Cl)cc(Cl)c1`
rule met

Given Clc1cc(Cl)cc(CNCC2CCN2c2nc3nc(Cl)ccc3[nH]2)c1 (centres unmarked) , state whether its pIC50 is at least 7.
rule not met

Identify whether the reported pIC50 of the following compound is 7 or greater: Fc1ccc2[nH]c(C3CCCN(CCc4cc(Cl)cc(Cl)c4)C3)nc2n1 (centres unmarked)
rule not met

* * *

Target: MetRS (S. aureus) (Staphylococcus aureus, UniProt Q5HII6)
Sequence (Q5HII6 whole entry): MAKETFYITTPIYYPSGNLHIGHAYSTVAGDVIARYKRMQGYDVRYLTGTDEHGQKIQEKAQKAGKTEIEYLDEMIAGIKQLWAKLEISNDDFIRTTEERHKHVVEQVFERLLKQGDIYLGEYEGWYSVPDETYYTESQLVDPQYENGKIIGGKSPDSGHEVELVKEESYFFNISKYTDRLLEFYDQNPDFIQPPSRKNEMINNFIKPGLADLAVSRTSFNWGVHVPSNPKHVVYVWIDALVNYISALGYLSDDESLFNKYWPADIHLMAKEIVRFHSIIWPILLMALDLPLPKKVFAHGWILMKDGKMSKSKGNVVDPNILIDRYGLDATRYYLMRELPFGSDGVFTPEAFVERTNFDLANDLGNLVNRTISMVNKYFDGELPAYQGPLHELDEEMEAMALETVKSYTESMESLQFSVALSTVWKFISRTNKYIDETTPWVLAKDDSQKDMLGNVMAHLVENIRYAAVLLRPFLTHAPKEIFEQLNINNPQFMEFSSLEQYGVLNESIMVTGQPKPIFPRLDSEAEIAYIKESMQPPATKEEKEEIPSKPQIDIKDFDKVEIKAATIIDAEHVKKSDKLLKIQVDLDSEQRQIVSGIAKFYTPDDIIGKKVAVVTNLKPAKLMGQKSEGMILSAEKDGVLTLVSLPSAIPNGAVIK
Experiment: biochemical
Conditions: ATP depletion, Kinase-Glo; read-out: H) MetRS (S. aureus) ATP depletion assay using Kinase-Glo with modified cpd dilution method, IC50
readout: IC50 (nM)
API: value field is a number in nM; no unit string.

Please review the following examples before continuing.
| compound | IC50 (nM) |
| --- | --- |
| Clc1cc(Cl)cc(CNCCCNc2nc3ncccc3[nH]2)c1 | 35 |
| COc1ccc(Oc2nc(NCc3nc4ccc(F)nc4[nH]3)nc(Oc3ccc(OC)cc3Cl)n2)c(Cl)c1 | 122 |

// next entry
Give the reported value of IC50 for this record: Clc1cc(Cl)cc(NCC2CCCN(c3nc4nc(Cl)ccc4[nH]3)C2)c1 (stereo not shown)
754

* * *

Parameter log10(IC50), tested on MetRS (S. aureus) (Staphylococcus aureus, UniProt Q5HII6), listed per item.
Record value = log10 of IC50 given in nM.

// worked examples, log10(IC50) included
| compound | log10(IC50) |
| --- | --- |
| Fc1ccc2[nH]c(N3CCCC(NCc4cc(Cl)cc(Cl)c4)C3)nc2n1 (centres unmarked) | 2.70 |
| O=C(NCc1nc2ccc(F)nc2[nH]1)OCCc1ccc(Cl)cc1Cl | 1.57 |
| O=C(/C=C/Oc1ccc(Cl)cc1Cl)NCc1nc2ccc(F)nc2[nH]1 | 1.48 |
| CC(=O)N(CCCNc1nc2ccc(F)nc2[nH]1)Cc1cc(Cl)cc(Cl)c1 | 1.08 |

# ---- query compound ----
State log10(IC50) on MetRS (S. aureus) (Staphylococcus aureus, UniProt Q5HII6). Entry: `CCOc1c(Cl)cc(Cl)cc1CNCCN(C)c1nc2nc(Cl)ccc2[nH]1`
2.42

* * *

Target: MetRS (T. brucei) (Trypanosoma brucei brucei, UniProt Q38C91)
Experiment: MetRS (T. brucei) ATP depletion assay using Kinase-Glo
Format: biochemical
readout: IC50 (nM)
Give just the numeric value; nM need not be written.

Before answering, review these 3 worked examples.
| compound | IC50 [nM] |
| --- | --- |
| Fc1ccc2[nH]c(C3CCCC(NCc4cc(Cl)cc(Cl)c4)C3)nc2c1 (stereo not shown) | 3680 |
| COc1ccc(Oc2nc(NCc3nc4ccc(F)nc4[nH]3)nc(NCc3nc4ccc(F)nc4[nH]3)n2)c(Cl)c1 | 39 |
| Clc1cc(Cl)cc(CNC2CCCC(c3nc4cc(Cl)cnc4[nH]3)C2)c1 (stereo not shown) | 6300 |

Please find the next compound below.
# lookup: MetRS (T. brucei) (Trypanosoma brucei brucei, UniProt Q38C91) IC50, key = CC(=O)N(Cc1cc(Cl)cc(Cl)c1)C1CCCC(c2nc3cc(Cl)ccc3[nH]2)C1 (stereo not shown)
1470
